These entries and their values trace back to patent US11746087B1.

Experiment: Mouse PK study (IV and PO), plasma parent compound and psilocin by LC-MS/MS
Format: in vivo
Details: male, C57Bl/6, mouse, plasma, po, 3 mg/kg, C(I) in plasma; 3 mg/kg oral C(I); mean (n = 1); read-out: AUC0-inf
attribute-measured: AUC(0-inf) (ng·h/mL)
Unit ng·h/mL implied. Number only.

Note to self: AUC(0-inf) recorded for CN(C)CCc1c[nH]c2cccc(OC(=O)c3ccc(Br)cc3)c12 [C(I)] was 6.87

* * *

Experiment: Mouse PK study (IV and PO), plasma parent compound and psilocin by LC-MS/MS
Type: in vivo
Settings: male, C57Bl/6, mouse, plasma, po, 3 mg/kg, C(I) in plasma; 3 mg/kg oral C(I); per animal; read-out: tmax
attribute-measured: Tmax (min)
Enter your answer as a number in min; do not include the unit.

Per the records, this compound ( CN(C)CCc1c[nH]c2cccc(OC(=O)c3ccc(Br)cc3)c12 ) has Tmax equal to 30

* * *

Assay: Mouse PK study (IV and PO), plasma parent compound and psilocin by LC-MS/MS
Format: in vivo
Settings: male, C57Bl/6, mouse, plasma, intravenous, 1 mg/kg, 1 mg/kg i.v. C(XX); 4 h; per animal; BLQ <0.25 ng/mL; read-out: Plasma concentration of C(XX)
attribute-measured: concentration at 4 h (ng/mL)
I only need the number, in ng/mL, no unit after it.

GET /value?item= CN(C)CCc1c[nH]c2cccc(OC(=O)c3cccc4c3OCCO4)c12 &field=concentration at 4 h returns 0.257

* * *

// reported IC50 for each item listed
Biological target: MAO-A (Homo sapiens, UniProt P21397)
Sequence (P21397 1-527): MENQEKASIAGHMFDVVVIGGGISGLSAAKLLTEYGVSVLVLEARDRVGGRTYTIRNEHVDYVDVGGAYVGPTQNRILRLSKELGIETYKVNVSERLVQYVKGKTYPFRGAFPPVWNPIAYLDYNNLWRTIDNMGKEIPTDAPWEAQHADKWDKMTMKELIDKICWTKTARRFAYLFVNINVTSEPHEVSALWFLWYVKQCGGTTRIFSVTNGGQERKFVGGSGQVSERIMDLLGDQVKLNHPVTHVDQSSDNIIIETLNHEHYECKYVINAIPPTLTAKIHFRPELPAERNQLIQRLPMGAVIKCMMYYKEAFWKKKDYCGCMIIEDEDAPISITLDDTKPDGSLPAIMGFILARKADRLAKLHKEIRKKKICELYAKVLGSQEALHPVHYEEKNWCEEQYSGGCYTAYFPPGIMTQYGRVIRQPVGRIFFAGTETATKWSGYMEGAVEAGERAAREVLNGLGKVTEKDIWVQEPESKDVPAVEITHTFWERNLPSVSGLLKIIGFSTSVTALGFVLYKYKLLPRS
Expressed in µM, but write only the number.

Past entries and their recorded results:
>>> numeric_value("CN(C)CCc1c[nH]c2cccc(OC(=O)c3c(F)c(F)c(F)c(F)c3F)c12 [C(VI)]")
20.7
>>> numeric_value("CN(C)CCc1c[nH]c2cccc(OC(=O)CC3CC3)c12 [C(IV)]")
34.4

Memo: COc1ccc(C(=O)Oc2cccc3[nH]cc(CCN(C)C)c23)cc1 [C(V)] , reported IC50: 76

* * *

Test: Mouse PK study (IV and PO), plasma parent compound and psilocin by LC-MS/MS
Assay type: in vivo
Conditions: male, C57Bl/6, mouse, plasma, oral, 1 mg/kg, 1 mg/kg oral C(I); 1 h; mean (n = 2); read-out: Plasma concentration of C(I)
attribute-measured: concentration at 1 h (ng/mL)
Kindly provide the numeric value in ng/mL only, without the unit symbol.

// recorded concentration at 1 h for CN(C)CCc1c[nH]c2cccc(OC(=O)c3ccc(Br)cc3)c12 [C(I)] : 0.898

* * *

Assay: Mouse PK study (IV and PO), plasma parent compound and psilocin by LC-MS/MS
Format: in vivo
Settings: male, C57Bl/6, mouse, plasma, po, 3 mg/kg, C(I) in plasma; 3 mg/kg oral C(I); per animal; read-out: Cmax
attribute-measured: Cmax
The reply should read as a number followed by its unit.

Briefly, Cmax measured for CN(C)CCc1c[nH]c2cccc(OC(=O)c3ccc(Br)cc3)c12 : 1.95 ng/mL

* * *

Assay: Mouse PK study (IV and PO), plasma parent compound and psilocin by LC-MS/MS
Type: in vivo
Conditions: male, C57Bl/6, mouse, plasma, intravenous, 1 mg/kg, 1 mg/kg i.v. C(XX); 0.25 h; per animal; BLQ <0.25 ng/mL; read-out: Plasma concentration of C(XX)
attribute-measured: concentration at 0.25 h (ng/mL)
Response body: numeric value in ng/mL, unit text excluded.

// field: concentration at 0.25 h; key: CN(C)CCc1c[nH]c2cccc(OC(=O)c3cccc4c3OCCO4)c12 ; value = 66.5

* * *

Experiment: Mouse PK study (IV and PO), plasma parent compound and psilocin by LC-MS/MS
Assay type: in vivo
Conditions: male, C57Bl/6, mouse, plasma, intravenous, 1 mg/kg, 1 mg/kg i.v. C(XX); 0.5 h; Mean ± SD; read-out: Plasma concentration of C(XX)
attribute-measured: concentration at 0.5 h (ng/mL)
Write the value in ng/mL as a bare number.

// CN(C)CCc1c[nH]c2cccc(OC(=O)c3cccc4c3OCCO4)c12 : concentration at 0.5 h value = 32

* * *

Test: Mouse PK study (IV and PO), plasma parent compound and psilocin by LC-MS/MS
Type: in vivo
Details: male, C57Bl/6, mouse, plasma, oral, 10 mg/kg, 10 mg/kg oral C(I); 1 h; Mean ± SD; read-out: Plasma concentration of C(I)
attribute-measured: concentration at 1 h (ng/mL)
Write it as a number; the unit ng/mL goes unstated.

The reported concentration at 1 h of the compound CN(C)CCc1c[nH]c2cccc(OC(=O)c3ccc(Br)cc3)c12 [C(I)] was 5.51

* * *

Assay: Mouse PK study (IV and PO), plasma parent compound and psilocin by LC-MS/MS
Assay type: in vivo
Details: male, C57Bl/6, mouse, plasma, oral, 3 mg/kg, 3 mg/kg oral C(I); 2 h; Mean ± SD; read-out: Plasma concentration of C(I)
attribute-measured: concentration at 2 h (ng/mL)
# output: bare number, implied unit ng/mL

# concentration at 2 h of CN(C)CCc1c[nH]c2cccc(OC(=O)c3ccc(Br)cc3)c12 = 0.786

* * *

Assay: Mouse PK study (IV and PO), plasma parent compound and psilocin by LC-MS/MS
Format: in vivo
Conditions: male, C57Bl/6, mouse, plasma, po, 10 mg/kg, C(I) in plasma; 10 mg/kg oral C(I); per animal; read-out: AUC0-inf
attribute-measured: AUC(0-inf) (ng·h/mL)
Report only the number, with the unit ng·h/mL understood.

Notebook: CN(C)CCc1c[nH]c2cccc(OC(=O)c3ccc(Br)cc3)c12 , AUC(0-inf) read as 16.3

* * *

Assay: Mouse PK study (IV and PO), plasma parent compound and psilocin by LC-MS/MS
Format: in vivo
Conditions: male, C57Bl/6, mouse, plasma, po, 1 mg/kg, C(I) in plasma; 1 mg/kg oral C(I); per animal; read-out: tmax
attribute-measured: Tmax (min)
Answer format: numeric, min implied, no suffix.

Noted for CN(C)CCc1c[nH]c2cccc(OC(=O)c3ccc(Br)cc3)c12 [C(I)] : its Tmax reads 30

* * *

Assay: Mouse PK study (IV and PO), plasma parent compound and psilocin by LC-MS/MS
Format: in vivo
Conditions: male, C57Bl/6, mouse, plasma, intravenous, 1 mg/kg, 1 mg/kg i.v. C(XX); 0.25 h; Mean ± SD; read-out: Plasma concentration of C(XX)
attribute-measured: concentration at 0.25 h (ng/mL)
# value in ng/mL; strip the unit string

Sample CN(C)CCc1c[nH]c2cccc(OC(=O)c3cccc4c3OCCO4)c12 ; concentration at 0.25 h observed: 70.5

* * *

Biological target: NET (Homo sapiens)
Sequence (P23975 whole entry): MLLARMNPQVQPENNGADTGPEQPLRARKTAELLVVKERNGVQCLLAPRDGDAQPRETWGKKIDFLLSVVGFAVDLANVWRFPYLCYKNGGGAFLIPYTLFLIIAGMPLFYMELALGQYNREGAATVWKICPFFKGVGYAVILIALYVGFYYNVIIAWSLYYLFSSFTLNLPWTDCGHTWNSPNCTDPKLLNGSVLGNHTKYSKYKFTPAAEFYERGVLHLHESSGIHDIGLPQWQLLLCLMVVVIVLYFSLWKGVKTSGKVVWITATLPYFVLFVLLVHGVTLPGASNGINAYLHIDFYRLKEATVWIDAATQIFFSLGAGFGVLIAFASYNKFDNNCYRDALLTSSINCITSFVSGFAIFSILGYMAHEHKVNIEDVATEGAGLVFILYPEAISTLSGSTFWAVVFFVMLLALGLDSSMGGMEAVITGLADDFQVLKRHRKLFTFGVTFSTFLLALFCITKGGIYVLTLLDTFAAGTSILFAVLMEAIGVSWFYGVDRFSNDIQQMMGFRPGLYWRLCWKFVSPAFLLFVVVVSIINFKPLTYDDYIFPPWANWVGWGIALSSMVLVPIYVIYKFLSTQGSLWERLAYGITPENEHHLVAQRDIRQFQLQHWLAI
Test: Neurotransmitter transporter uptake assay, blocker
Overview of recorded pIC50 for various compounds
Field pIC50 (float): negative decimal logarithm of the concentration in molar.

>>> numeric_value("CN(C)CCc1c[nH]c2cccc(OC(=O)c3cccc4c3OCCO4)c12 [C(XX)]")
4.82

Alright, here's another compound for you.
Entry CN(C)CCc1c[nH]c2cccc(OC(=O)c3ccc(Br)cc3)c12 [C(I)] — recorded pIC50 = 4.33

* * *

Assay: Mouse PK study (IV and PO), plasma parent compound and psilocin by LC-MS/MS
Type: in vivo
Conditions: male, C57Bl/6, mouse, plasma, intravenous, 1 mg/kg, 1 mg/kg i.v. C(XX); 5 min; Mean ± SD; read-out: Plasma concentration of C(XX)
attribute-measured: concentration at 5 min
State the result as a value with its unit after it.

Quick note, concentration at 5 min for CN(C)CCc1c[nH]c2cccc(OC(=O)c3cccc4c3OCCO4)c12 landed at 122 ng/mL

* * *

Biological target: DAT (Homo sapiens)
Sequence (Q01959 whole entry): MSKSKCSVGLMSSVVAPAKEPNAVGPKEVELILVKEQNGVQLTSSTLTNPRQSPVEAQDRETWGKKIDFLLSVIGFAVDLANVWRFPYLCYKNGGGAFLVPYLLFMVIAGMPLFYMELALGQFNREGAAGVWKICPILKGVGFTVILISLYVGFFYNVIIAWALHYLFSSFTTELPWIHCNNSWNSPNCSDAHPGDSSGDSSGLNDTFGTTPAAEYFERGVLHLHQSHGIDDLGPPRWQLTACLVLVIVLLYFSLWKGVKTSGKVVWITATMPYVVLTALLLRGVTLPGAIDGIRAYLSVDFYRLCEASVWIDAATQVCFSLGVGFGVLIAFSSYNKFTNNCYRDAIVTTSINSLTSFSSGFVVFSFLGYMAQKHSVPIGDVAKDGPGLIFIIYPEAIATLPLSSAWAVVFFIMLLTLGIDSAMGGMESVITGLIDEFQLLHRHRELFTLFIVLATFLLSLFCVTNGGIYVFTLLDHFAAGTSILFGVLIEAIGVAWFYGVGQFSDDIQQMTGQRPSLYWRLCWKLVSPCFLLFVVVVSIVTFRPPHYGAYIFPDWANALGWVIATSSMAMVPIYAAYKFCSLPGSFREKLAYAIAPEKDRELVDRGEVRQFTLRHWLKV
Experiment: Neurotransmitter transporter uptake assay, blocker
Each record here notes measured IC50.

# annotated cases, reported IC50 shown
>>> result("CN(C)CCc1c[nH]c2cccc(OC(=O)CC3CC3)c12")
"> 100 µM"
>>> result("CN(C)CCc1c[nH]c2cccc(OC(=O)c3c(F)c(F)c(F)c(F)c3F)c12")
"> 100 µM"
>>> result("COc1ccc(C(=O)Oc2cccc3[nH]cc(CCN(C)C)c23)cc1")
"> 100 µM"

Query compound follows.
Short answer for CN(C)CCc1c[nH]c2cccc(OC(=O)c3cccc4c3OCCO4)c12 : IC50 was > 100 µM
